Collected inhibition at 10 µM values appear next to each entry.
System: fibrin-induced microglia activation
Experiment: Image-based assay of fibrin-induced microglia activation (HTS and dose response)
Format: cell-based, rat
Conditions: Rattus norvegicus, Microglia, read-out: Fibrin % inhibition

{"compound": "Clc1ccc2c(c1)C(N1CCNCC1)=Nc1ccccc1O2 [Amoxapine, reference compound]", "inhibition at 10 µM": "58%"}
{"compound": "CC[N+](C)(C)Cc1ccccc1Br [Bretylium]", "inhibition at 10 µM": "-26%"}
{"compound": "CC(=O)Nc1ccc(S(=O)(=O)c2ccc(NC(C)=O)cc2)cc1 [Acedapsone]", "inhibition at 10 µM": "0%"}
{"compound": "CN(C)c1ccc2nc3ccc(=[N+](C)C)cc-3sc2c1 [Methylene Blue]", "inhibition at 10 µM": "25%"}
{"compound": "Brc1c(NC2=NCCN2)ccc2nccnc12 [Brimonidine]", "inhibition at 10 µM": "-36%"}
